interaction score: recorded values
# test target: T1, 4H2758-AA
# T1 chain: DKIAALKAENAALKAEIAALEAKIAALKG
# assay: two-hybrid library CCmax;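 also: natural log of median RNA to DNA barcode read ratio; higher means stronger binding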
# run parameters: mean of both orientations

binder	interaction score
DEIAALEAENAALKAKIAALKAEIAALEG [4H233-AA]	1.97
DENAALEAEIAALEAKIAALKAENAALKG [4H1068-AA]	-1.99
DKIAALEAENAALEAEIAALKAENAALEG [4H2187-AA]	0.853
DEIAALEAEIAALKAKNAALKAEIAALEG [4H121-AA]	0.775
DENAALEAKIAALKAEIAALEAKIAALKG [4H1350-AA]	-0.48
DKIAALKAEIAALKAKNAALKAKNAALEG [4H2687-AA]	-1.78
